- protocolNotes: gradient 5% acetonitrile 3 min, to 50% in 2 min, to 85% in 15 min, held 3 min, 100 µL/min
- conditionParameters: column: Zorbax Extend-C18 2.1 x 50 mm; eluents: water / acetonitrile, 0.1% formic acid
readout: RP-LC retention time (s)
One number for each entry, in s.

{"compound": "Cc1cccc(-c2noc(C3CCCN3S(=O)(=O)c3cccc(Cl)c3C)n2)c1 (centres undefined)", "readout": "RP-LC retention time", "resultUnits": "s", "experimentalResult": 1310}
{"compound": "CCn1c(SCC(=O)N2CCC(C(N)=O)CC2)nnc1-c1sc2ncccc2c1N", "readout": "RP-LC retention time", "resultUnits": "s", "experimentalResult": 603}
{"compound": "COC(=O)CNC(=O)N1CCCCCC1c1cccc(C)c1 (centres undefined)", "readout": "RP-LC retention time", "resultUnits": "s", "experimentalResult": 840}

Below are some compounds; for each one, tell me its RP-LC retention time.
1. O=C(NCc1csc(C2CCN(C(=O)c3c(F)cccc3F)CC2)n1)C1CCC1
2. CCc1ccc(OCc2nc(C)c(C(=O)Nc3nc(-c4ccc(C)cc4)cs3)s2)cc1
3. Cc1ccc(Cl)cc1N1CCN(c2ccc3cc(S(=O)(=O)N4CCCCC4)ccc3n2)CC1
4. CCOc1ccc(N2CC(c3nc(-c4ccccc4F)no3)CC2=O)cc1 (centres undefined)
5. Cc1ccc2nc(NC(C)(C)CO)nc(-c3ccccc3)c2c1
6. CCOC(=O)N1CCC(NS(=O)(=O)CCCOc2ccc(F)cc2)CC1
7. CSCC[C@H](NC(=O)C(C)Oc1cc(C)cc2oc(=O)c3c(c12)CCCC3)C(=O)O (some centres undefined)

Marked response:
740
1420
1000
967
644
758
860

Report RP-LC retention time for each item below.
1. O=C(NCCc1c[nH]c2ccc(Cl)cc12)c1ccc(CN2C(=O)CCn3nccc32)cc1
2. Cc1nc2nc(-c3ccc(C(C)(C)C)cc3)nn2c(C)c1CC(=O)N1CCCC1
3. CCCn1c(=O)sc2cc(S(=O)(=O)N3CCC(C(=O)NC4CCC(C)CC4)CC3)ccc21 (centres undefined)
4. CCOC(=O)c1c(S(=O)(=O)N2CCc3ccccc3C2)c(C)n(C)c1C

Marked response:
1. 768
2. 900
3. 1030
4. 989
